experiment: Cocrystal screening by heat melting 1-menthol (Example 2), powder X-ray diffraction and thermal analysis; type: physicochemical; design: key: A cocrystal was completely formed.; B: A mixture of a cocrystal and the host compound or guest compound was formed.; C: A cocrystal was not formed (a mixture of the host compound and the guest compound was formed); settings: host carbamazepine, equimolar guest, 1-menthol added, 10 hours at 80° C.
Property Measured: Cocrystal formation, Example 2

O=C(O)c1ccccc1 ... A
O=C(O)/C=C\C(=O)O ... A
NCC(=O)O ... C
C/C=C/C=C/C(=O)O ... A
CC(C)C[C@H](N)C(=O)O ... C
O=C(O)CC(=O)O ... A
NC(=O)c1ccccc1 [Benzamide] ... A
O=C(O)CCCC(=O)O ... A

Q) Could you please provide reported Cocrystal formation, Example 2 for O=C(O)CC(O)(CC(=O)O)C(=O)O ? Thanks!
A) B

Q) Let me know recorded Cocrystal formation, Example 2 for O=S(=O)(O)CCS(=O)(=O)O , thanks.
A) A
